- assay-system: T1, His-tagged human CD38 (ACRO Biosystems cat #CD8-H5224) (human, UniProt P28907 43-300)
- T1 construct: bought recombinant protein with His tag
- measurement-description: ELISA, coated His-CD38
parameter-measured: ELISA 1 ug/ml
Field format: numeric only.

# ELISA 1 ug/ml of 40769p1.2.B10 (scFv, V domains shown, tested as scFv-Fc supernatant) VH: EVQLLESGGGLVQPGGSLRLSCPASGFDFSSYWMTWVRQAPGKGLEWVSTITDSGGRAWYADSVRGRFTISRDNSKNTLYLQMNSLRAEDTAVYYCARDTPKTYYYYAMDVWGQGTTVTV VL: QSALTQPPSASGTPGQRVTISCSGSSSNIQYSYVSWYQQLPGTAPKLLIYNNVQRPSGVPDRFSGSKSGTSASLAISGLQSEDEADYYCATWDESLLGLWVFGGGTKLTVL = 1.7

# binder 40769p1.1.B10 (scFv, V domains shown, tested as scFv-Fc supernatant) VH: EVQLLESGGGLVQPGGSLRLSCTASGITFSRFNMFWVRQAPGKGLEFVASIRDDGSWTYYADSVKGRFTISRDNSKNTLYLQMNSLRAEDTAVYYCAKDYNSKDFIYHYVMDVWGQGTTVTVSS VL: QSVLTQPPSASGTPGQRVTISCSGRNSNIGNNVVNWYQQLPGTAPKLLIYRNQERPSGVPDRFSGSKSGTSASLAISGLQSEDEADYYCSTWDDSLNGWVFGGGTKLTVL ; its ELISA 1 ug/ml = 1.5

Entry 40769p1.1.B12 (scFv, V domains shown, tested as scFv-Fc supernatant) VH: EVQLLESGGGLIQPGGSLRLSCTASGFDFSSYGMHWVRQAPGKGLEWVGIISDSGGTTYYADSVKGRFTISRDNSKNTMYLQMNSLRAEDTALYYCASYIMDVWGQGITVTVSS VL: QSVLTQPPSASGTPGQRVTISCSGSSSNVGGNSVYWYQQLPGTAPKLLFYGNHRRPSGVPDRFSGSKSGTSASLAISGLQSEDEADYYCAVWDDSLNAWVFGGGTKLTVL , ELISA 1 ug/ml reported as 1.56

Looking up 40596p1.D2 (scFv, V domains shown, tested as scFv-Fc supernatant) VH: EVQLLESGGGLVQPGGSLRLSCAASGFDFSKNAMSWVRQAPGKGLEYVAGSGWSGSFIFYADSVKGRSTVSRDNSENTLYLQMSSLRAEDTAVYYCAKNPGFGEMDVWGQGTTVTVSS VL: ELVLTQSPGSLFLSPGERATLTCRASQTIGSNLAWYQQKFGQAPRLLIYGASTRAADIPDRFSGSGSGTEFTLTISSLQSEDFAVYYCQQYNSWPPLTFGGGTKVEIK , I found its ELISA 1 ug/ml recorded as 1.98

For record 40596p1.E4 (scFv, V domains shown, tested as scFv-Fc supernatant) VH: EVQLLESGGGLVQPGGSLRLSCAASGFDFSGSAMSWVRQAPGKGLEYVAGLGWSGSFIYYADSVKGRSTISRDNSKNTLYLQLNSLRAEDTAVYYCARNPGFGEMDVWGQGTTVTVSS VL: EIVLTQSPGSLSLSPGERATLSCRASQTVGSNLAWYQQKPGQAPRLLIYGASTRATDIPDRFSGSGSGTEFTLTISSLQSEDFAVYYCQQYNSWPPLTFGGGTKVEIK the listed ELISA 1 ug/ml is 1.93
